Tested on: IST-MEL1 (Melanoma);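 note: after 72 h of two-drug dosing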
experimental details: Bliss excess, mean over the matrix (fraction); higher = more synergy
property: Bliss excess

# compound, Bliss excess
measured = [
    ("Cc1c2c(nn1C)CSCc1cc(n(C)n1)CSc1cc(c3ccccc3c1)OCCCc1c(C(=O)O)n(C)c3c-2c(Cl)ccc13 [AZD5991] + C[C@@H](Nc1cc(F)cc(F)c1)c1cc(C(=O)N(C)C)cc2c(=O)cc(N3CCOCC3)oc12 [AZD8186] (first compound max 1 µM, 7x7, partner max 3 µM)", -0.0184),
    ("C[C@@H](Nc1cc(F)cc(F)c1)c1cc(C(=O)N(C)C)cc2c(=O)cc(N3CCOCC3)oc12 [AZD8186] + C1CN(CCC1(C(=O)N[C@@H](CCO)C2=CC=C(C=C2)Cl)N)C3=NC=NC4=C3C=CN4 [AZD5363] (first compound max 10 µM, 7x7, partner max 10 µM)", -0.013),
]

Let us examine a further case.
Quick one: Bliss excess for COc1nnc2ccc(N3CCC(c4ccc(OCCN5CCN(C)C(=O)[C@H]5C)cc4)CC3)nn12 [AZD5153] + CCN(CCO)CCCOc1ccc2c(Nc3cc(CC(=O)Nc4cccc(F)c4)[nH]n3)ncnc2c1 [AZD2811] (first compound max 1 µM, 7x7, partner max 1 µM) ?
-0.0196
